- Assay Comment: AUC (0 to 6 hrs) in rat at 10 mg/kg, po
- Assay type: ADME, organism-based
- Set-up: time < 6 hr, dose 10 mg/kg, route oral
- Measurement Context: plasma
Assay Endpoint: AUC(0-t) at 6 h (ng·h/mL)

Solved cases (3 shown):
{"columns": ["Compound Smiles", "Assay Endpoint", "Recorded Value"],
 "data": [
  ["COCCOC(=O)N1CC[C@@H]2[C@H](C[C@H]3C(=O)O[C@H](C)[C@H]3[C@H]2/C=C/c2ccc(-c3cccc(F)c3)cn2)C1", "AUC(0-t) at 6 h", 88],
  ["C[C@H]1OC(=O)[C@@H]2C[C@@H]3CN(C(=O)C4CC4)CC[C@H]3[C@H](/C=C/c3ccc(-c4ccccc4F)cn3)[C@H]12", "AUC(0-t) at 6 h", 6010],
  ["C[C@H]1OC(=O)[C@@H]2C[C@@H]3COCC[C@H]3[C@H](/C=C/c3ccc(-c4cccc(C(F)(F)F)c4)cn3)[C@H]12", "AUC(0-t) at 6 h", 545]
]}

P: CCNC(=O)N1CC[C@@H]2[C@H](C[C@H]3C(=O)O[C@H](C)[C@H]3[C@H]2/C=C/c2ccc(-c3cccc(F)c3)cn2)C1
Q: C[C@H]1OC(=O)[C@@H]2C[C@@H]3COCC[C@H]3[C@H](/C=C/c3ccc(-c4ccccc4F)cn3)[C@H]12
When their AUC(0-t) at 6 h values are compared, which is larger, P or Q ? Indicate your choice by writing its label.
P
(P: 2050 ng·h/mL, Q: 1050 ng·h/mL)

###

- System: Proteinase-activated receptor 1 (Homo sapiens, UniProt P25116)
- Assay Comment: Displacement of [3H]haTRAP from PAR1 in human platelet membrane
Assay Endpoint: Ki (nM)
Value expressed in nM; do not type the unit.

// lookup Ki for CCOC(=O)N1CC[C@@H]2[C@H](C[C@H]3C(=O)O[C@H](C)[C@H]3[C@H]2/C=C/c2ccc(-c3cccc(F)c3)cn2)C1
4.5

###

- Assay Comment: AUC (0 to 6 hrs) in rat at 10 mg/kg, po
- Assay type: ADME, organism-based
- Set-up: time < 6 hr, dose 10 mg/kg, route oral
- Measurement Context: plasma
Assay Endpoint: AUC(0-t) at 6 h (ng·h/mL)

Solved cases (2 shown):
{"columns": ["Compound Smiles", "AUC(0-t) at 6 h [ng·h/mL]"],
 "data": [
  ["C[C@H]1OC(=O)[C@@H]2C[C@@H]3COCC[C@H]3[C@H](/C=C/c3ccc(-c4cccc(F)c4)cn3)[C@H]12", 850],
  ["C[C@H]1OC(=O)[C@@H]2C[C@@H]3CN(C(=O)C4CC4)CC[C@H]3[C@H](/C=C/c3ccc(-c4cccc(F)c4)cn3)[C@H]12", 4370]
]}

A: CCOC(=O)N1CC[C@@H]2[C@H](C[C@H]3C(=O)O[C@H](C)[C@H]3[C@H]2/C=C/c2ccc(-c3cccc(F)c3)cn2)C1
B: C[C@H]1OC(=O)[C@@H]2C[C@@H]3COCC[C@H]3[C@H](/C=C/c3ccc(-c4cccc(F)c4F)cn3)[C@H]12
Select the item whose AUC(0-t) at 6 h value is smaller, choosing between A and B . Indicate your choice by writing its label.
B
(B: 1190 ng·h/mL, A: 2220 ng·h/mL)

###

- System: Proteinase-activated receptor 1 (Homo sapiens)
- Sequence (P25116 whole entry): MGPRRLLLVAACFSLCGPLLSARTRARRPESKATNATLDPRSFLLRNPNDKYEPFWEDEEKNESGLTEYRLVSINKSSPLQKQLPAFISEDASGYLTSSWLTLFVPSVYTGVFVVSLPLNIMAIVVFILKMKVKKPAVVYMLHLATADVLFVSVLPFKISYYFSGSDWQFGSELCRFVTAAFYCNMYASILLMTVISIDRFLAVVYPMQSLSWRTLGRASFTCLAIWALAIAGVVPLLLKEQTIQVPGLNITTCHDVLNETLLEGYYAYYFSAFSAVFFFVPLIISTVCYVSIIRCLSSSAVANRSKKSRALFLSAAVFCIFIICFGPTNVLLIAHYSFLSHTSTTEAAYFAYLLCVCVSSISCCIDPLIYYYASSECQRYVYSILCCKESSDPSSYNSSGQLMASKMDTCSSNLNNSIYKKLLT
- Assay Comment: Displacement of [3H]haTRAP from PAR1 in human platelet membrane
pIC50: −log10 of the molar value.
Assay Endpoint: pIC50

{"columns": ["Compound Smiles", "pIC50"],
 "data": [
  ["C[C@H]1OC(=O)[C@@H]2C[C@@H]3CS(=O)(=O)CC[C@H]3[C@H](/C=C/c3ccc(-c4cccc(C(F)(F)F)c4)cn3)[C@H]12", 6.70]
]}

a: CCOC(=O)N1CCC[C@H]2[C@H](/C=C/c3ccc(-c4ccccc4F)cn3)[C@@H]3[C@@H](C)OC(=O)[C@@H]3C[C@@H]21
b: C[C@H]1OC(=O)[C@@H]2C[C@@H]3CN(S(C)(=O)=O)CC[C@H]3[C@H](/C=C/c3ccc(-c4cccc(F)c4)cn3)[C@H]12
When their pIC50 values are compared, which is larger, a or b ? Indicate your choice by writing its label.
b
(b: 7.82, a: 6.82)

A: CCCS(=O)(=O)N1CC[C@@H]2[C@H](C[C@H]3C(=O)O[C@H](C)[C@H]3[C@H]2/C=C/c2ccc(-c3cccc(F)c3)cn2)C1
B: C[C@H]1OC(=O)[C@@H]2C[C@@H]3CN(C(=O)C4CC4)CC[C@H]3[C@H](/C=C/c3ccc(-c4cccc(C(F)(F)F)c4)cn3)[C@H]12
C: C[C@H]1OC(=O)[C@@H]2C[C@@H]3COCC[C@H]3[C@H](/C=C/c3ccc(-c4ccccc4Cl)cn3)[C@H]12
Falling order of pIC50, please. Order the labels as requested and give them as your answer.
C, B, A

Attribution: ChEMBL document CHEMBL1148816
